Data credit: paper PMC10376691

Molecular target: recombinant human AChE (Homo sapiens)
Construct: purchased R&D Systems Inc. (Minneapolis, MN, USA)
Sequence (P22303 32-614): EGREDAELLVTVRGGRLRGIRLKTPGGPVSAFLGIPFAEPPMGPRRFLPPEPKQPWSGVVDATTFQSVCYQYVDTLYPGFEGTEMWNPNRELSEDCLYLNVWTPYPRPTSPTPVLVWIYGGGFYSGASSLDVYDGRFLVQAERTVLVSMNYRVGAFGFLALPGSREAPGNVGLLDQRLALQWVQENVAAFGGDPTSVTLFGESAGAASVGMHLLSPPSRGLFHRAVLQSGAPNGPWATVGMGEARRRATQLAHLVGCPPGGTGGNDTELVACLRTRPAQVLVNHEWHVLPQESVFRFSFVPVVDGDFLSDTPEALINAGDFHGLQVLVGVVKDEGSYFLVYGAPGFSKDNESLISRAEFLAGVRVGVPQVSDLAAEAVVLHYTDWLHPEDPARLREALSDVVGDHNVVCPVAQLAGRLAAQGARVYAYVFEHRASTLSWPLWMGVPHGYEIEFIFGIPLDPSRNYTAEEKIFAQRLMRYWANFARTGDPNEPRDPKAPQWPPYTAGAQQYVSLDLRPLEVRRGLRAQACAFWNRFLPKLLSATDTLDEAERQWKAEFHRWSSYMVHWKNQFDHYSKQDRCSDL
Assay: AChE inhibitory activity in vitro (acetylthiocholine/DTNB)
Type: biochemical
Procedure: Commercially synthesized acetylthiocholine iodide was hydrolyzed using AChE to release thiocholine, which was coupled with DTNB to generate the yellowish 5-thio-2-nitrobenzoate for in vitro AChE activity assays. […] An equal volume of DMSO instead of the sample solution was used in the blank group and expressed as 100% AChE activity. […] AChE inhibition (%) was calculated as follows: [(A405blank − A405sample)/(A405blank)] × 100%.
Reported pIC50 values for the following molecules.
Expect pIC50 as a plain number equal to -log10 of the molar concentration.

Please review the following examples before continuing.
MOLECULE	pIC50
COc1ccc(/C=C/c2cc(O)cc(O)c2)cc1O [RHA, 3,5,3′-trihydroxy-4′-methoxystilbene]	3.49
Oc1cc(O)cc(C=Cc2ccc(O)c(O)c2)c1 [PIC, 3,5,3′,4′-tetrahydroxystilbene]	3.55

Recorded pIC50 for Oc1cc(O)cc(C=Cc2c(O)cccc2O)c1 [GNT, 3,5,2′,6′-tetrahydroxystilbene] , please? 3.56
